Molecular target: T1, full length recombinant human 2N4R tau (human, UniProt P10636 1-758)
T1 construct: bought from rPeptide; pHrodo Red maleimide-labelled where it stands in uptake assays; also called tau1-441; full length tau
T1 sequence (P10636 other isoform, or with tags, fused parts or gaps limits assumed): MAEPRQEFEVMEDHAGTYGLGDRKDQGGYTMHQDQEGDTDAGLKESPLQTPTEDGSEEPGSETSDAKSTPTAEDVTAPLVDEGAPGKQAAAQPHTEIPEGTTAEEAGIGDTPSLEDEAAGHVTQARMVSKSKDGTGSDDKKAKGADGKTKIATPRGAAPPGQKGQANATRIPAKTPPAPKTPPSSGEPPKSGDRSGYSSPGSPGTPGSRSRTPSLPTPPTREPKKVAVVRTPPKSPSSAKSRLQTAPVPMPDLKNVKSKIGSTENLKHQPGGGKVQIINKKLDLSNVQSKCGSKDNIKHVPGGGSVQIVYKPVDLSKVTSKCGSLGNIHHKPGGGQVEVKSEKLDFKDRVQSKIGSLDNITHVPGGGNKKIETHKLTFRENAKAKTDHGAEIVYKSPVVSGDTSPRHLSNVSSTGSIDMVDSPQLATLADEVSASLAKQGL
Assay: SPR SCK, IgG on Protein A, tau in flow
RECORDED_METRIC: koff

**Q:** // query koff value for entry #44_VH4VK4_H04/pVL (antibody, V domains shown, also called VH04/pVL; Clone VH4_H04) VH: QVQLQESGPGLVKPSETLSLTCTVSGIDLSSYAMAWVRQAPGKGLEWIGCIDRRGGTFYASWVKGRFTISKDTSKTTVDLQMTSLTAEDTATYFCARDAGSFHPWGQGTLVTVSS VL: DIQMTQSPSSLSASVGDRVTITCQASQSVYDNYLAWYQQKPGQPPKLLIHAASNLASGVPSRFSGSGSGTEFTLTISSLQPDDFATYYCLGEFSCTTTDCNVFGGGTKVEIK
**A:** 0.0017 s⁻¹

**Q:** // query koff value for entry #44_VH4VK4_H15/pVL (antibody, V domains shown, also called Clone VH4_H15; #44_VH4_H15) VH: QVQLQESGPGLVKPSETLSLTCTVSGIDLSSYAMAWVRQAPGKGLEWIGAIDSVGNTFYASWVKGRFTISKDTSKTTVDLQMTSLTAEDTATYFCARDSGAFDPWGQGTLVTVSS VL: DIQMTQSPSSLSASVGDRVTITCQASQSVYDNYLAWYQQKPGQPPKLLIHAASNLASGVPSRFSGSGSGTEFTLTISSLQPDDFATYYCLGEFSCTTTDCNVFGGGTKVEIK
**A:** 0.0361 s⁻¹

**Q:** // query koff value for entry #44_VH4VK4_H12/pVL (antibody, V domains shown, also called Clone VH4_H12; #44_VH4_H12) VH: QVQLQESGPGLVKPSETLSLTCTVSGIDLSSYAMAWVRQAPGKGLEWIGAIDARGSTFYASWVKGRFTISKDTSKTTVDLQMTSLTAEDTATYFCARDSGAFDPWGQGTLVTVSS VL: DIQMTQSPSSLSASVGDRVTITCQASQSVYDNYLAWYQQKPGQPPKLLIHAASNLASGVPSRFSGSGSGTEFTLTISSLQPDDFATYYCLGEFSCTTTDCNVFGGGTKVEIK
**A:** 0.251 s⁻¹

**Q:** // query koff value for entry #44_VH4VK4_H18/pVL (antibody, V domains shown, also called Clone VH4_H18; #44_VH4_H18) VH: QVQLQESGPGLVKPSETLSLTCTVSGIDLSSYAMAWVRQAPGKGLEWIGAIDAGGNTFYASWVKGRFTISKDTSKTTVDLQMTSLTAEDTATYFCARDSGAFDPWGQGTLVTVSS VL: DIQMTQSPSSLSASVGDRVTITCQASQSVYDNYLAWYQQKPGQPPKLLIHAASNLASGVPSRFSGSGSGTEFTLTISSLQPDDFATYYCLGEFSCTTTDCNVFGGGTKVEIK
**A:** 0.00983 s⁻¹

**Q:** // query koff value for entry #44_VH4_H09/L2 (antibody, V domains shown, also called Clone VH4_H09/L2) VH: QVQLQESGPGLVKPSETLSLTCTVSGIDLSSYAMAWVRQAPGKGLEWIGAIDARGNTFYASWVKGRFTISKDTSKTTVDLQMTSLTAEDTATYFCARDSGAFDPWGQGTLVTVSS VL: DIQMTQSPSSLSASVGDRVTITCQASQSVYDNYLAWYQQKPGQPPKLLIHAASNLASGVPSRFSGSGSGTEFTLTISSLQPDDFATYYCLGEFSCQDTDCNVFGGGTKVEIKR
**A:** 0.0106 s⁻¹

**Q:** // query koff value for entry #44_VH4VK4_H06-H04/pVL (antibody, V domains shown, also called H06-04/pVL; Clone VH4_H06_H04) VH: QVQLQESGPGLVKPSETLSLTCTVSGIDLSSYAMAWVRQAPGKGLEWIGVIDAAGHTFYASWVKGRFTISKDTSKTTVDLQMTSLTAEDTATYFCARDAGSFHPWGQGTLVTVSS VL: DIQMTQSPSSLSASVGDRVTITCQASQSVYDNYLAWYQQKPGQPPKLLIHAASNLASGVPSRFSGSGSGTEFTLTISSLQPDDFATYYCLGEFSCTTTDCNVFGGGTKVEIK
**A:** 0.00443 s⁻¹

**Q:** // query koff value for entry #44_VH4VK4_H05/pVL (antibody, V domains shown, also called Clone VH4_H05; #44_VH4_H05) VH: QVQLQESGPGLVKPSETLSLTCTVSGIDLSSYAMAWVRQAPGKGLEWIGCIDRRGGTFYASWVKGRFTISKDTSKTTVDLQMTSLTAEDTATYFCARDAGHFDYWGQGTLVTVSS VL: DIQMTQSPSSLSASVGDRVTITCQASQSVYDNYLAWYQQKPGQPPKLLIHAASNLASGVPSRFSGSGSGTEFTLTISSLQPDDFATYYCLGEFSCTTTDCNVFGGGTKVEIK
**A:** 0.0203 s⁻¹

**Q:** // query koff value for entry #44_VH4VK4_H09/pVL (antibody, V domains shown, also called Clone VH4_H09; #44_VH4_H09) VH: QVQLQESGPGLVKPSETLSLTCTVSGIDLSSYAMAWVRQAPGKGLEWIGAIDARGNTFYASWVKGRFTISKDTSKTTVDLQMTSLTAEDTATYFCARDSGAFDPWGQGTLVTVSS VL: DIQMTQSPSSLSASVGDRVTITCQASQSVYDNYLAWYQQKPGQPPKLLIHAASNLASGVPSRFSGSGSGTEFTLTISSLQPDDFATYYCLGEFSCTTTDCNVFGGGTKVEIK
**A:** 0.032 s⁻¹

**Q:** // query koff value for entry #44_VH4_H14/L2 (antibody, V domains shown, also called Clone VH4_H14/L2) VH: QVQLQESGPGLVKPSETLSLTCTVSGIDLSSYAMAWVRQAPGKGLEWIGAIDSAGSTFYASWVKGRSTISKDTSKTTVDLQMTSLTAEDTATYFCARDSGAFDPWGQGTLVTVSS VL: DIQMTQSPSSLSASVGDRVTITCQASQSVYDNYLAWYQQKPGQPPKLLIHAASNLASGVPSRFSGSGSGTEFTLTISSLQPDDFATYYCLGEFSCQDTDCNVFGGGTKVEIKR
**A:** 0.0161 s⁻¹

**Q:** // query koff value for entry #44_VH4VK4_H16-H04/pVL (antibody, V domains shown, also called Clone VH4_H16_H04; #44_VH4_H16-H04) VH: QVQLQESGPGLVKPSETLSLTCTVSGIDLSSYAMAWVRQAPGKGLEWIGAIDRAGNTFYASWVKGRFTISKDTSKTTVDLQMTSLTAEDTATYFCARDAGSFHPWGQGTLVTVSS VL: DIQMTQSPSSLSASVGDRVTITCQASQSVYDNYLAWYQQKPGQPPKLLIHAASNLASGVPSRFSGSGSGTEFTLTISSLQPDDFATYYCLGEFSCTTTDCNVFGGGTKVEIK
**A:** 0.00417 s⁻¹
